target of assay: T1, human Flag-tagged soluble TWEAK (amino acids 106-249) (human, UniProt O43508 106-249)
T1 construct: the tag is put first here only by convention; also called Human TWEAK; not shown: Flag tag
T1 sequence (looked up): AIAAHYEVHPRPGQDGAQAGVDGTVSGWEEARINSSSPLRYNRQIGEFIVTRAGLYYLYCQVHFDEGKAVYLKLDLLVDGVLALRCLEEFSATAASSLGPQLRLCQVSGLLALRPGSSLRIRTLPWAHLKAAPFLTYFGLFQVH
test method notes: receptor interaction ELISA: antibody pre-incubated with human Flag-tagged soluble TWEAK, binding to coated human Fn14:Fc
measured quantity: IC50 (µg/mL)
Reply with just the number (in µg/mL).

- binder: "Antibody 24 (antibody, V domains shown) VH: QVQLQESGPGLVKPSETLSLTCTVSGYSIRSGYWWSWIRQPPGKGLEWIGQIYNKGNTDNSPSLKSRVTISVDTSKNQFSLKLSSVTAADTAVYYCARVFWDDAYFDVWGQGTMVTVSS VL: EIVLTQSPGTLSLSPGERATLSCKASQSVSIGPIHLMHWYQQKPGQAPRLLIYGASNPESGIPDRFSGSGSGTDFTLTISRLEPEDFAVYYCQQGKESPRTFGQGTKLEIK"
  unit tag: "µg/mL"
  value: 0.02

Okay, next one:
// IC50 lookup, binder = Antibody 19 (antibody, V domains shown) VH: QVQLQESGPGLVKPSETLSLTCAVSGYSIRSGYWWSWIRQQPGKGLEWIGQIYNKGNTDNNPALKSQVTISVDTSKNQFSLKLSSVTAADTAVYYCARVFWDDAYFDVWGQGTMVTVSS VL: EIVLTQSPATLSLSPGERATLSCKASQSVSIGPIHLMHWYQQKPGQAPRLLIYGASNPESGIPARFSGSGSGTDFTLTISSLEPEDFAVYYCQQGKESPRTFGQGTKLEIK , result: 0.015

Every entry's value here was drawn from patent US20100255008A1.
